# tested_on: IRAK4 enzyme (Homo sapiens (Human))
# Sequence (Q9NWZ3 whole entry): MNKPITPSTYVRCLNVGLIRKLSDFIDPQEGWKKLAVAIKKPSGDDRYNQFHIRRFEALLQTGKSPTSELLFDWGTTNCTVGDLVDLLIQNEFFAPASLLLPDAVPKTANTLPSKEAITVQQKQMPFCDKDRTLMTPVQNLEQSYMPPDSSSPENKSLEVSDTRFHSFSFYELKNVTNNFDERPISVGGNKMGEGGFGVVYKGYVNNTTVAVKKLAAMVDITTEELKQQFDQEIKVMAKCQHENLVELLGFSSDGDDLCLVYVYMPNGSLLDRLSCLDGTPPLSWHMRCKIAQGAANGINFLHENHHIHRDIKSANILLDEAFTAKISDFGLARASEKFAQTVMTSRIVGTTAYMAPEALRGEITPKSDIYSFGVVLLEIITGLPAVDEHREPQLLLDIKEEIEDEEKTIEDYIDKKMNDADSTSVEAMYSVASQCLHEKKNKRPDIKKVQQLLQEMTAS
# assay_text: biochemical
# Type: biochemical
# cond: IRAK4 enzyme, TR-FRET, 500 μM ATP
Each item that follows carries a reported IC50.

Known results for molecules:
molecule: CC(C)(O)[C@H](F)CNC(=O)c1cnc(-c2ccc3cc(C#N)cnn23)cc1Nc1ccc(-c2ncco2)cc1
IC50: 2 nM
--
molecule: CC(C)(O)[C@H](F)CNC(=O)c1cnc(-c2ccc3cc(C#N)cnn23)cc1Nc1cnc(N2CC3CC(C2)O3)nc1
IC50: < 1 nM
--
molecule: CC(=O)NC1CCC(NC(=O)c2cnc(-c3ccc4cc(C#N)cnn34)cc2N[C@H]2CC[C@H](NC(C)=O)CC2)CC1 (stereo partly shown)
IC50: 2 nM

Summary for this molecule, CC(C)(O)[C@H](F)CNC(=O)c1cnc(-c2ccc3cc(C#N)cnn23)cc1Nc1ccc2nncn2c1 : IC50 is 2 nM

Summary for this molecule, CC(C)(O)[C@H](F)CNC(=O)c1cnc(-c2ccc3cc(C#N)cnn23)cc1NC1CC2(CCN2)C1 (stereo partly shown) [Example 908] : IC50 is 6 nM

Summary for this molecule, Cc1ccc(Nc2cc(-c3ccc4cc(C#N)cnn34)ncc2C(=O)NC[C@@H](F)C(C)(C)O)cn1 : IC50 is < 1 nM

Summary for this molecule, COC(=O)C1(NC(=O)c2cnc(-c3ccc4cc(C#N)cnn34)cc2NC23CCC(O)(CC2)CC3)CC1 : IC50 is 1 nM
